Entries and their measured pEC50 follow.
study.target: hSTING(HAQ) (Homo sapiens, UniProt Q86WV6, G230A/H232R/R293Q/R71H)
Sequence (Q86WV6 whole entry R71H/G230A/H232R/R293Q): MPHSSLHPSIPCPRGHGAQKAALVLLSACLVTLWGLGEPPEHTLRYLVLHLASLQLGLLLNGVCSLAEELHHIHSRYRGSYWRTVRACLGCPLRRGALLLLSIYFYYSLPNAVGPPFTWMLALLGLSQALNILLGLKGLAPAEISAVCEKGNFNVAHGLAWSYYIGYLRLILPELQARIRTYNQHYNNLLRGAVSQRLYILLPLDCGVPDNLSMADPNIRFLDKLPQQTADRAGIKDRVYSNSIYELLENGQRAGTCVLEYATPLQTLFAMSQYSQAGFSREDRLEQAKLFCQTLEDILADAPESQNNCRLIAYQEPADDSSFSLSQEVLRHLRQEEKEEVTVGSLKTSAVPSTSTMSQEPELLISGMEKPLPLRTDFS
assay.comment: Luciferase reporter assay in HEK293T-hSTING-Luciferase cells, HAQ polymorph
condition: 20 hr stimulation, read-out: HAQ activity (EC50 range)
pEC50: −log10 of the molar value.
measured.metric: pEC50

molecule="Cc1cccc(CNC(=O)c2ccc3c(c2)N(Cc2cc(F)cc(F)c2)C(=O)C(C)S3)c1 (centres unmarked)" observed="5.00 to 6.00"
molecule=O=C(NCc1ccccc1)c1ccc2c(c1)N(Cc1ccccc1)C(=O)CS2 observed="< 5.00"
molecule="C[C@@H]1Oc2ccc(C(=O)NCc3c(F)cc(F)cc3F)cc2N(Cc2cc(F)cc(F)c2)C1=O [Example 234]" observed="5.00 to 6.00"
molecule="Cc1ccc(CNC(=O)c2ccc3c(c2)N(Cc2cc(F)cc(F)c2)C(=O)C(C)S3)o1 (centres unmarked)" observed="< 5.00"
molecule=O=C(NCc1c(F)cc(F)cc1F)c1cnc2c(c1)N(Cc1c(F)cccc1Cl)C(=O)CS2 observed="< 5.00"
molecule="CC1Sc2ncc(C(=O)NCc3cc4ccccc4o3)cc2N(Cc2c(F)cccc2Cl)C1=O (centres unmarked)" observed="> 6.00"
molecule="CC1Sc2ncc(C(=O)NCc3cc4ccccc4o3)cc2N(Cc2cc(F)cc(F)c2)C1=O (centres unmarked) [Example 193]" observed="5.00 to 6.00"
molecule=O=C(NCc1ccc(F)cc1)c1ccc2c(c1)N(Cc1c(F)cccc1Cl)C(=O)CC2 observed="5.00 to 6.00"

###

study.target: WT/R232 STING protein (Homo sapiens, UniProt Q86WV6, H232R)
Sequence (Q86WV6 whole entry H232R): as the sequence (Q86WV6 whole entry R71H/G230A/H232R/R293Q) above, with H71R, A230G, Q293R counted along it
assay.comment: Luciferase reporter assay in HEK293T-hSTING-Luciferase cells, WT/R232
condition: 20 hr stimulation, read-out: R232 Activity (EC50 range)
measured.metric: EC50

compound=Cc1cc(C(=O)NCc2ccco2)cc2c1SCC(=O)N2Cc1ccccc1F observed="> 10 µM"
compound="CC1Sc2ncc(C(=O)NCc3cc4ccccc4o3)cc2N(Cc2c(F)cccc2Cl)C1=O (centres unmarked)" observed="< 1 µM"
compound=O=C(NCc1c(F)cc(F)cc1F)c1ccc2c(c1)N(S(=O)(=O)c1ccccc1)CCS2 observed="1 to 10 µM"
compound=N#Cc1cc(C(=O)NCc2ccco2)cc2c1SCC(=O)N2Cc1ccccc1 observed="> 10 µM"
compound=C[C@H](NC(=O)c1ccc2c(c1)N(Cc1ccccc1F)C(=O)CS2)C1CCCCC1 observed="> 10 µM"
compound=O=C(NCc1ccco1)c1ccc2c(c1)N(Cc1nc3ccccc3o1)C(=O)CS2 observed="> 10 µM"
compound=O=C(NCc1c(F)cc(F)cc1F)c1ccc2c(c1)N(Cc1c(F)cccc1Cl)C(=O)CC2 observed="< 1 µM"
compound=O=C(NCc1cc2ncccc2o1)c1ccc2c(c1)N(Cc1cc(F)cc(F)c1)C(=O)CC2 observed="> 10 µM"

###

Form field: pEC50 (one value per entry).
study.target: WT/R232 STING protein (Homo sapiens, UniProt Q86WV6, H232R)
assay.comment: Luciferase reporter assay in HEK293T-hSTING-Luciferase cells, WT/R232
condition: 20 hr stimulation, read-out: R232 Activity (EC50 range)
pEC50: −log10 of the molar value.
measured.metric: pEC50

compound=O=C(NCc1ccccc1Cl)c1ccc2c(c1)N(Cc1ccccc1Cl)C(=O)CS2 study_target="WT/R232 STING protein (Homo sapiens, UniProt Q86WV6, H232R)" observed="< 5.00"
compound=O=C(NCc1c(F)cc(F)cc1F)c1ccc2c(c1)N(Cc1c(F)cc(O)cc1F)C(=O)CS2 study_target="WT/R232 STING protein (Homo sapiens, UniProt Q86WV6, H232R)" observed="> 6.00"
compound="CC1Sc2ccc(C(=O)NCc3c(F)cc(F)cc3F)cc2N(Cc2cc(F)cc(F)c2)C1=O (stereo not shown) [Example 145]" study_target="WT/R232 STING protein (Homo sapiens, UniProt Q86WV6, H232R)" observed="> 6.00"
compound="CC(O)c1cc(C(=O)NCc2c(F)cc(F)cc2F)cc2c1SCC(=O)N2Cc1ccc(F)cc1 (stereo not shown)" study_target="WT/R232 STING protein (Homo sapiens, UniProt Q86WV6, H232R)" observed="< 5.00"
